Data credit: patent US5116851A

System: isolated canine cardiac Purkinje fibers
Test: Calcium-dependent slow response action potential amplitude (SAPA), standard microelectrode techniques
Type: cell-based
Settings: Canis lupus familiaris, read-out: IC50 in reducing slow response action potential amplitude (SAPA)
measurement.kind: IC50

Measured on isolated canine cardiac Purkinje fibers, CN(C)CCCCN(C(=O)C=Cc1ccccc1)c1ccccc1SCc1ccccc1 has a documented IC50 of 2.6 µM

Measured on isolated canine cardiac Purkinje fibers, CN(C)CCCN(C(=O)Cc1ccccc1)c1ccccc1SCc1ccccc1.Cl [Example 3, monohydrochloride] has a documented IC50 of 1.5 µM

Measured on isolated canine cardiac Purkinje fibers, CN(C)CCCN(C(=O)Cc1ccccc1)c1ccccc1SCc1ccc(Cl)cc1 has a documented IC50 of > 10 µM

====

Give LDH (Lactate Dehydrogenase Release) for every item shown.
Test system: Ischemic and Nonischemic Isolated Rat Heart
Assay: Isolated perfused rat heart (Langendorff), global ischemia/reperfusion: cardiac function, flow and LDH release
Parameters: species or system rat (male Sprague-Dawley)
Conditions: Postischemia, cumulative over 30 min reperfusion, per g preischemia heart weight; 1 μM; lower = greater cardioprotection
Where a name gives a salt, the structure may show the parent alone.
Unit U/g implied. Number only.

Measured on Ischemic and Nonischemic Isolated Rat Heart, COc1ccc([C@@H]2Sc3ccccc3N(CCN(C)C)C(=O)[C@@H]2OC(C)=O)cc1 [Diltiazem, reference compound] has a documented LDH (Lactate Dehydrogenase Release) of 10

Measured on Ischemic and Nonischemic Isolated Rat Heart, CN(C)CCCN(C(=O)c1ccccc1)c1ccccc1SCc1ccccc1.Cl [Example 7] has a documented LDH (Lactate Dehydrogenase Release) of 6.7

Measured on Ischemic and Nonischemic Isolated Rat Heart, CN(C)CCCCN(C(=O)Cc1ccccc1)c1ccccc1SCc1ccccc1 [Example 5] has a documented LDH (Lactate Dehydrogenase Release) of 16.5

Measured on Ischemic and Nonischemic Isolated Rat Heart, CN(C)CCN(C(=O)Cc1ccccc1)c1ccccc1SCc1ccccc1.Cl [Example 4] has a documented LDH (Lactate Dehydrogenase Release) of 21

Measured on Ischemic and Nonischemic Isolated Rat Heart, COc1ccc(CSc2cc(Cl)ccc2N(CCCN(C)C)C(=O)Cc2ccccc2)cc1.Cl [Example 9] has a documented LDH (Lactate Dehydrogenase Release) of 8.2

Measured on Ischemic and Nonischemic Isolated Rat Heart, COc1cc(SCc2ccccc2)c(N(CCCN(C)C)C(=O)Cc2ccccc2)cc1OC [Example 8] has a documented LDH (Lactate Dehydrogenase Release) of 3.7

Measured on Ischemic and Nonischemic Isolated Rat Heart, CN(C)CCCN(C(=O)Cc1ccccc1)c1ccccc1SCc1ccc(Cl)cc1 [Example 1] has a documented LDH (Lactate Dehydrogenase Release) of 12

Measured on Ischemic and Nonischemic Isolated Rat Heart, COc1ccc(CSc2ccccc2N(CCCN(C)C)C(=O)Cc2ccccc2)cc1 [Example 2, monohydrochloride] has a documented LDH (Lactate Dehydrogenase Release) of 8.9

Measured on Ischemic and Nonischemic Isolated Rat Heart, CN(C)CCCN(C(=O)Cc1ccccc1)c1ccccc1OCc1ccccc1.O=C(O)C(=O)O [Example 6] has a documented LDH (Lactate Dehydrogenase Release) of 5.7

Measured on Ischemic and Nonischemic Isolated Rat Heart, CN(C)CCCN(C(=O)Cc1ccccc1)c1ccccc1SCc1ccccc1.Cl [Example 3] has a documented LDH (Lactate Dehydrogenase Release) of 5.2

====

System: Ischemic and Nonischemic Isolated Rat Heart
Test: Isolated perfused rat heart (Langendorff), global ischemia/reperfusion: cardiac function, flow and LDH release
Set-up: species or system rat (male Sprague-Dawley)
Conditions: Preischemia (Post Drug), 1 μM
Method: Lactate dehydrogenase is an enzyme released in the heart during an ischemic event and is an index of cardiac cell necrosis. In the Grover et al. model, this is measured during reperfusion and an agent which provides for lower release levels of LDH is considered to offer greater cardioprotection since lower LDH indicates a smaller infarct size. Cardiac function is determined using the double product (DP) of heart rate times the left ventricular developed pressure (LVDP) divided by 1,000. […]
Where a name gives a salt, the structure may show the parent alone.
measurement.kind: HR (Heart Rate) (beats/min)
Unit beats/min implied. Number only.

Measured HR (Heart Rate), COc1ccc(CSc2ccccc2N(CCCN(C)C)C(=O)Cc2ccccc2)cc1 [Example 2, monohydrochloride] : 219

Measured HR (Heart Rate), CN(C)CCCCN(C(=O)Cc1ccccc1)c1ccccc1SCc1ccccc1 [Example 5] : 253

Measured HR (Heart Rate), CN(C)CCN(C(=O)Cc1ccccc1)c1ccccc1SCc1ccccc1.Cl [Example 4] : 236

Measured HR (Heart Rate), COc1ccc([C@@H]2Sc3ccccc3N(CCN(C)C)C(=O)[C@@H]2OC(C)=O)cc1 [Diltiazem, reference compound] : 217
